Reference source for all entries: ChEMBL document CHEMBL3259570

# Species: Homo sapiens
# experimentalProtocol: Selectivity index, ratio of IC50 for recombinant human p38-alpha to IC50 for GST-fused recombinant human ALK5
observationType: Ratio IC50
Please state the value as a number alone, without comment.

Recorded results for 4 molecules are shown here.
Which Ratio IC50 reading was recorded for the molecule `Cc1cccc(-c2nn(CC(=S)Nc3cccc(C#N)c3)cc2-c2ccc3ncnn3c2)n1` ?
284

Which Ratio IC50 reading was recorded for the molecule `Cc1cccc(-c2[nH]c(Cc3cccc(C(N)=O)c3)nc2-c2ccc3nccnc3c2)n1` ?
28

Which Ratio IC50 reading was recorded for the molecule `Cc1cccc(-c2[nH]c(CNC(=S)c3cccc(C#N)c3)nc2-c2ccc3ncnn3c2)n1` ?
41

Which Ratio IC50 reading was recorded for the molecule `Cc1cccc(-c2[nH]c(CNC(=S)c3ccccc3)nc2-c2ccc3ncnn3c2)n1` ?
79

Okay, now this molecule:
Which Ratio IC50 reading was recorded for the molecule `Cc1cccc(-c2nn(CC(=S)Nc3ccccc3F)cc2-c2ccc3ncnn3c2)n1` ?
180

----------
# Species on record: Homo sapiens
# experimentalProtocol: Selectivity index, ratio of IC50 for recombinant human p38-alpha to IC50 for GST-fused recombinant human ALK5
observationType: Ratio IC50

Recorded results for 5 compounds are shown here.
Which Ratio IC50 reading was recorded for the compound `Cc1cccc(-c2[nH]c(CNC(=O)c3ccccc3)nc2-c2ccc3ncnn3c2)n1` ?
> 175

Which Ratio IC50 reading was recorded for the compound `Cc1cccc(-c2[nH]c(CNC(=O)c3ccccc3F)nc2-c2ccc3ncnn3c2)n1` ?
> 270

Which Ratio IC50 reading was recorded for the compound `Cc1cccc(-c2[nH]c(CNC(=S)c3cccc(C(N)=O)c3)nc2-c2ccc3ncnn3c2)n1` ?
129

Which Ratio IC50 reading was recorded for the compound `Cc1cccc(-c2[nH]c(CNC(=S)c3ccccc3F)nc2-c2ccc3ncnn3c2)n1` ?
39

Which Ratio IC50 reading was recorded for the compound `Cc1cccc(-c2nn(CC(=O)Nc3cccc(C(N)=O)c3)cc2-c2ccc3ncnn3c2)n1` ?
> 278

Okay, now this compound:
Which Ratio IC50 reading was recorded for the compound `Cc1cccc(-c2[nH]c(CNC(=O)c3cccc(C(N)=O)c3)nc2-c2ccc3ncnn3c2)n1` ?
> 94

----------
# targetOfAssay: TGF-beta receptor type-1 (Homo sapiens)
# Sequence (P36897 whole entry): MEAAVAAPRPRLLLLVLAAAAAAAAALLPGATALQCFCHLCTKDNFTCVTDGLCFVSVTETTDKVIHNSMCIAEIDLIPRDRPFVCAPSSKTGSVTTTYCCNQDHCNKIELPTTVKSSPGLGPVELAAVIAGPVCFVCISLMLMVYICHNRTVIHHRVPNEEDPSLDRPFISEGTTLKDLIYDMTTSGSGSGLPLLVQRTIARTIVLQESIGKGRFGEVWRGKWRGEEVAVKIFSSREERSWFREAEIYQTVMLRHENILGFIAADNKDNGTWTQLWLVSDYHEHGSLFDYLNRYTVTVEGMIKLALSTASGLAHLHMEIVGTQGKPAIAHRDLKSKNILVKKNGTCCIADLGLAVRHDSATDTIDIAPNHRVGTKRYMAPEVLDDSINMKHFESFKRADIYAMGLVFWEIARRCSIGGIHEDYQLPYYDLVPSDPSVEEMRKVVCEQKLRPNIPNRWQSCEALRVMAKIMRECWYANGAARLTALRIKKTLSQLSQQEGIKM
# experimentalProtocol: Inhibition of GST-fused recombinant human ALK5 expressed in baculovirus-infected insect Sf9 cells using casein as substrate by radioisotope-based assay
Classes based on IC50: band 1 = under 30 nM, band 2 = from 30 nM up to 80 nM, band 3 = 80 nM and over

Which IC50 category applies to `Cc1cccc(-c2nn(CC(=O)Nc3ccccc3F)cc2-c2ccc3ncnn3c2)n1` here?
band 3

Which IC50 category applies to `Cc1cccc(-c2nn(CC(=O)Nc3cccc(C(N)=O)c3)cc2-c2ccc3ncnn3c2)n1` here?
band 2

Which IC50 category applies to `Cc1cccc(-c2[nH]c(CNC(=S)c3cccc(C(N)=O)c3)nc2-c2ccc3ncnn3c2)n1` here?
band 1

Which IC50 category applies to `Cc1cccc(-c2[nH]c(CNC(=S)c3ccccc3)nc2-c2ccc3ncnn3c2)n1` here?
band 2

Which IC50 category applies to `Cc1cccc(-c2[nH]c(CNC(=O)c3ccccc3)nc2-c2ccc3ncnn3c2)n1` here?
band 2

Which IC50 category applies to `Cc1cccc(-c2[nH]c(CNC(=S)c3ccccc3F)nc2-c2ccc3ncnn3c2)n1` here?
band 1

Which IC50 category applies to `Cc1cccc(-c2nn(CC(=S)Nc3ccccc3F)cc2-c2ccc3ncnn3c2)n1` here?
band 1

# ---- query molecule ----
Which IC50 category applies to `Cc1cccc(-c2[nH]c(CNC(=O)c3cccc(C#N)c3)nc2-c2ccc3ncnn3c2)n1` here?
band 3

----------
# Organism: Homo sapiens
# experimentalProtocol: Selectivity index, ratio of IC50 for recombinant human p38-alpha to IC50 for GST-fused recombinant human ALK5
observationType: Ratio IC50

Recorded results for 3 compounds are shown here.
Which Ratio IC50 reading was recorded for the compound `Cc1cccc(-c2[nH]c(CNC(=O)c3cccc(C#N)c3)nc2-c2ccc3ncnn3c2)n1` ?
> 111

Which Ratio IC50 reading was recorded for the compound `Cc1cccc(-c2nn(CC(=O)Nc3ccccc3)cc2-c2ccc3ncnn3c2)n1` ?
> 128

Which Ratio IC50 reading was recorded for the compound `Cc1cccc(-c2nn(CC(=O)Nc3cccc(C#N)c3)cc2-c2ccc3ncnn3c2)n1` ?
> 370

Okay, now this compound:
Which Ratio IC50 reading was recorded for the compound `Cc1cccc(-c2nn(CC(=O)Nc3ccccc3F)cc2-c2ccc3ncnn3c2)n1` ?
> 118
